- Measurement protocol: Solubility in water
- Condition label: boiling water
Measured property: solubility

Measured solubility, C[C@H](CNC(=O)[C@H]1N=C(c2cccc(O)c2O)O[C@@H]1C)C(=O)N[C@@H]1CCCN(O)C1=O [L-654,040] : ~10000 µg/mL
